- ASSAYED TARGET: human Plasma Kallikrein (Homo sapiens (Human), UniProt P03952)
- Sequence (P03952 20-638): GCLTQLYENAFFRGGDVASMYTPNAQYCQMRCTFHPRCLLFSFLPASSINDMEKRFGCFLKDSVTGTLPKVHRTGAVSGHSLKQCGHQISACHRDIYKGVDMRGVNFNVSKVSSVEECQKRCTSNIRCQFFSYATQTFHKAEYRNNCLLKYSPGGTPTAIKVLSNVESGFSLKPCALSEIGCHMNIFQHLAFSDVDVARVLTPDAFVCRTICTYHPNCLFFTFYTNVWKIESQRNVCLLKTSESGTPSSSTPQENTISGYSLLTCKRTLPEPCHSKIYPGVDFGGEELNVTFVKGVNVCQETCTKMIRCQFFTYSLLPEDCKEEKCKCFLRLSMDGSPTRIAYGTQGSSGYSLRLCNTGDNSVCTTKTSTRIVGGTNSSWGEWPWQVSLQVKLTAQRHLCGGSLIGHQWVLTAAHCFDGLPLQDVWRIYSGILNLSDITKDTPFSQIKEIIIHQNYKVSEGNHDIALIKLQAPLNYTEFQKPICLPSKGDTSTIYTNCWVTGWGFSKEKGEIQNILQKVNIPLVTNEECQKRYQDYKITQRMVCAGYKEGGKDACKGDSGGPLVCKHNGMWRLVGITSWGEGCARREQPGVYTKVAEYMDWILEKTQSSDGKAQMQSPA
- MEASUREMENT DESCRIPTION: In vitro enzyme inhibition of human plasma kallikrein (PFR-AMC cleavage)
- Type: biochemical
- RUN CONDITIONS: human plasma kallikrein, Pro-Phe-Arg-AMC substrate, 37° C.; read-out: hPK IC50
RECORDED ENDPOINT: IC50

* Cc1cc(N)nc(C)c1CNC(=O)c1ccnc(Cc2cnc3cc(Cl)ccc3c2)c1 | < 100 nM
* NC(=O)c1cc(Cc2cc(C(=O)NCc3n[nH]c4ccc(Cl)cc34)ccn2)cc2cc(Cl)cnc12 | < 100 nM
* Nc1ccc(CNC(=O)c2ccnc(Cc3ccc4ncc(Cl)cc4c3)c2)c(C2CC2)n1 | 100 to 1000 nM
* Cc1cc(N)nc(C)c1CNC(=O)c1ccnc(Cc2ccc3nc(C(N)=O)ccc3c2)c1 | 100 to 1000 nM

Req: Quick one: IC50 for Cc1cnc2c(S(C)(=O)=O)cc(Cc3cc(C(=O)NCc4cnc5[nH]cc(Cl)c5c4)ccn3)cc2c1 ?
Resp: < 100 nM

Req: Try the compound Cc1ccc2cc(Cc3cc(C(=O)NCc4c(C)cc(N)nc4C)ccn3)ccc2n1
Resp: < 100 nM

Req: Follow-up entry: Cc1ccc2c(cnn2Cc2cc(C(=O)NCc3c(C)cc(N)nc3C)ccn2)c1
Resp: < 100 nM

Req: Let us now turn to Cc1cc(N)nc(C)c1CNC(=O)c1ccnc(Cn2ncc3cc(Cl)ccc32)c1
Resp: < 100 nM

Req: Another compound to look at: Cc1cnc2ccc(Cc3cc(C(=O)NCc4ccc5c(N)noc5c4)ccn3)cc2c1
Resp: 1000 to 10000 nM

Req: For Cc1cnc2c(C#N)cc(Cc3cc(C(=O)NCc4ccc5c(N)nccc5c4)ccn3)cc2c1 then?
Resp: < 100 nM

Req: Now give it for Cc1cnc2c(C#N)cc(Cc3cc(C(=O)NCc4n[nH]c5ccc(Cl)cc45)ccn3)cc2c1 too.
Resp: < 100 nM
